# Read-out: Actin alpha 1 (ACTA1), ACTA1 (gene 58)
# Test Description: BSK_MyoF_ACTA1: BioMAP Diversity Plus: MyoF Assay for Actin alpha 1 (ACTA1) Biomarker Activity (AID 2284244)
# Condition Set: primary human lung fibroblasts
Calls of active or inactive are those of the source. How the source made its calls: active means hit-call score of the fitted dose curve at least 0.9, where 1 is the maximum; inactive means score below 0.9.
Outcome codes: active, inactive

Molecule: CN(CCO)S(=O)(=O)C(F)(F)C(F)(F)C(F)(F)C(F)(F)C(F)(F)C(F)(F)C(F)(F)C(F)(F)F
Cat: inactive
--
Molecule: CN(Cc1cnc2nc(N)nc(N)c2n1)c1ccc(C(=O)N[C@@H](CCC(=O)O)C(=O)O)cc1
Cat: inactive
--
Molecule: NC(=NCCCCCCN=C(N)/N=C(\N)Nc1ccc(Cl)cc1)/N=C(\N)Nc1ccc(Cl)cc1
Cat: active
--
Molecule: CC[N+](CC)(CC)Cc1ccccc1
Cat: inactive
--
Molecule: CCCCCc1ccc(O)cc1
Cat: active
--
Molecule: O=C(O)CCC(F)(F)C(F)(F)C(F)(F)C(F)(F)C(F)(F)C(F)(F)F
Cat: inactive
--
Molecule: CCOC(=O)CN[C@@H](C(=O)N1CC[C@H]1C(=O)NCc1ccc(/C(N)=N/O)cc1)C1CCCCC1
Cat: inactive
--
Molecule: COCN(COC)c1nc(N(COC)COC)nc(N(COC)COC)n1
Cat: inactive
--
Molecule: O=C(NO)c1ccccc1
Cat: inactive
--
Molecule: CCCCC(CC)C(=O)OCCOCCOCCOCCOC(=O)C(CC)CCCC (centres undefined)
Cat: inactive
--
Molecule: Oc1cc2ccccc2cc1O
Cat: inactive
--
Molecule: C=CC(C)(CCC=C(C)C)OC(C)=O (centres undefined)
Cat: inactive
--
Molecule: OCC(F)(F)C(F)(F)C(F)(F)C(F)(F)C(F)(F)C(F)(F)C(F)(F)C(F)(F)C(F)(F)C(F)(F)C(F)(F)F
Cat: inactive
--
Molecule: CC1=NN(c2ccccc2)C(=O)C1
Cat: inactive
--
Molecule: Cc1ccc(C(=O)c2ccccc2)cc1
Cat: active
--
Molecule: COc1cc(OC)nc(NC(=O)NS(=O)(=O)Nc2ccccc2C(=O)N(C)C)n1
Cat: inactive
--
Molecule: C=COC(=O)C(C)(C)CCCCCC
Cat: active
--
Molecule: O=P(O)(O)CCC(F)(F)C(F)(F)C(F)(F)C(F)(F)C(F)(F)C(F)(F)F
Cat: inactive
--
Molecule: CN(C)c1ccc(C(=C2C=CC(=[N+](C)C)C=C2)c2ccccc2)cc1
Cat: active

* * *

# Tested System: rat Thyrotropin Releasing Hormone Receptor (TRH), Trhr (gene 25570) (UniProt Q01717)
# Sequence (Q01717 whole entry, looked up): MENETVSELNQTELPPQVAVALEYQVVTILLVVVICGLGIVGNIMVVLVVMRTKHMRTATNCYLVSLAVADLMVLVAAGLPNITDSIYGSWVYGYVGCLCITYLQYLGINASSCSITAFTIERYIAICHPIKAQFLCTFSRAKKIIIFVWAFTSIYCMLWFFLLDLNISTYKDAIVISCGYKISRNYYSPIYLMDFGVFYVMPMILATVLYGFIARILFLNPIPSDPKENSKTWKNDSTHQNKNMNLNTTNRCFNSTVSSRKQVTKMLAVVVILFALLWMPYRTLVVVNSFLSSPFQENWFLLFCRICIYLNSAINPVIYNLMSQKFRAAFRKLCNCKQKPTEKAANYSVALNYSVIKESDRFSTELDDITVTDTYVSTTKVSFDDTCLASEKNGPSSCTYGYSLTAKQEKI
# Test Description: NVS_GPCR_rTRH: NovaScreen (NVS) G Protein-Coupled Receptor Assay for rat Thyrotropin Releasing Hormone Receptor (TRH) (AID 2283329);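 further: hit means lower bound tracer signal versus DMSO baseline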
Inconclusive results are not listed. Activity calls are given as the source filed them. The calls were made as follows: active = hit-call score of the fitted dose curve at least 0.9, where 1 is the maximum; inconclusive = response in the unintended direction; inactive = score below 0.9.
Metric: AC50

Smiles String: CCCCCCC(C)(C)C(=O)O
Tested System: rat Thyrotropin Releasing Hormone Receptor (TRH), Trhr (gene 25570) (UniProt Q01717)
Obs Value: inactive
//
Smiles String: COc1cc([N+](=O)[O-])ccc1N
Tested System: rat Thyrotropin Releasing Hormone Receptor (TRH), Trhr (gene 25570) (UniProt Q01717)
Obs Value: inactive
//
Smiles String: Cc1ccc(S(=O)(=O)O)cc1
Tested System: rat Thyrotropin Releasing Hormone Receptor (TRH), Trhr (gene 25570) (UniProt Q01717)
Obs Value: 167 nM (active)
//
Smiles String: CCCCc1ccc2ccccc2c1S(=O)(=O)O
Tested System: rat Thyrotropin Releasing Hormone Receptor (TRH), Trhr (gene 25570) (UniProt Q01717)
Obs Value: inactive
//
Smiles String: CS(=O)(=O)c1ccc([C@@H](CC2CCCC2)C(=O)Nc2cnccn2)cc1Cl
Tested System: rat Thyrotropin Releasing Hormone Receptor (TRH), Trhr (gene 25570) (UniProt Q01717)
Obs Value: inactive
